- target-desc: human PTH1 receptor (Homo sapiens)
- Sequence (Q03431 27-593): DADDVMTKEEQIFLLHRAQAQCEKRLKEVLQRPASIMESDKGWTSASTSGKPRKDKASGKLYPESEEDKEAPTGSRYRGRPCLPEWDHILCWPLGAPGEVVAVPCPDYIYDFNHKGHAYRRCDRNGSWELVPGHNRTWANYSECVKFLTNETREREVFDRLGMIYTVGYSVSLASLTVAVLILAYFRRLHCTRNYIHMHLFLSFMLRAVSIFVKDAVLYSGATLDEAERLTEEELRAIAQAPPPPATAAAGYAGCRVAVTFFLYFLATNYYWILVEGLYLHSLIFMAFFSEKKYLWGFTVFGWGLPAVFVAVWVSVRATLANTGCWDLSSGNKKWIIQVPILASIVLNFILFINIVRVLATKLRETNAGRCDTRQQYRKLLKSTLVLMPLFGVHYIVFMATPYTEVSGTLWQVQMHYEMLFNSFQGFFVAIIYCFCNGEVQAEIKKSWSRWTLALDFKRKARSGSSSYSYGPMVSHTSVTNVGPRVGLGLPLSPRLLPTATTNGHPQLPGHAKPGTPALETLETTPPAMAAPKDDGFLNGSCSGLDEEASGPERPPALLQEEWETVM
- method-summary: In vitro cAMP signal activity in HKRK-B7 cells (LLC-PK1 cells overexpressing the human PTH1 receptor)
- Type: cell-based
- condition-parameters: HKRK-B7 cells; compound at 1×10^−3 M; cAMP produced as percentage of that produced by hPTH(1-34) at 100 nM
The compounds listed here are annotated with their cAMP production activity (%).

compound	cAMP production activity (%)
CCOCc1cc(NC(C)=O)ccc1/C=C/S(=O)(=O)N1CCC2(CC1)N=C(C1CCC(C)CC1)NC2=O (stereo not shown) [Compound 576]	95
CCCCOC1CCC(C2=NC3(CCN(S(=O)(=O)CCc4ccc(NC(C)=O)cc4C)CC3)C(=O)N2)CC1 (stereo not shown) [Compound 912]	98
Cc1cc(S(=O)(=O)NC2CCC(O)CC2)ccc1CCS(=O)(=O)N1CCC2(CC1)N=C(c1cccc(C(F)(F)F)c1)NC2=O (stereo not shown) [Compound 853]	63
Cc1cc(N2CCOC2=O)ccc1CCS(=O)(=O)N1CCC2(CC1)N=C(C1CCC(C)CC1)NC2=O (stereo not shown) [Compound 865]	8.9
